- assay explanation: in vivo
- applied conditions: male, Gottingen, minipig, stratum corneum (tape strips), topical, 30 μg/mL
property label: concentration at 7 days (ng/g)

compound	property label	reading unit	experimental value
C=C1/C(=C\C=C2/CCC[C@]3(C)[C@@H]([C@H](C)CCCC(C)(C)O)CC[C@@H]23)C[C@@H](O)C[C@@H]1O [Calcitriol, 1,25-dihydroxyvitamin D3]	concentration at 7 days	ng/g	1510

###

- assay explanation: in vivo
- applied conditions: female, Gottingen, minipig, topical, 3 μg/mL

compound	concentration at 7 days, ng/g
C=C1/C(=C\C=C2/CCC[C@]3(C)[C@@H]([C@H](C)CCCC(C)(C)O)CC[C@@H]23)C[C@@H](O)C[C@@H]1O [Calcitriol, 1,25-dihydroxyvitamin D3]	0

Provenance of the data: patent US9901637B2
